// reported log10 half-life for each item listed
- ASSAY INFO: Half life of compound when water is added (0.15u) in pH 7.4 phosphate buffer (0.05 M) at 37 degree C
- Type: ADME
Log scale reminder: half-life in min, then log10 taken.

(Q) Sample C[n+]1cccc(C(=O)OCCOC(=O)C2N3C(=O)[C@@H](NC(=O)Cc4ccccc4)[C@H]3SC2(C)C)c1.[I-] (some centres undefined) — what was its log10 half-life?
(A) 1.57

More entries:
(Q) Sample C[n+]1cccc(C(=O)OCOC(=O)C2N3C(=O)[C@@H](NC(=O)Cc4ccccc4)[C@H]3SC2(C)C)c1.[I-] (some centres undefined) — what was its log10 half-life?
(A) 0.43

(Q) Sample C[n+]1cccc(C(=O)NCC(OC(=O)C2N3C(=O)[C@@H](NC(=O)Cc4ccccc4)[C@H]3SC2(C)C)c2ccccc2)c1.[I-] (some centres undefined) — what was its log10 half-life?
(A) 2.43
